Entries and their viability values follow.
- Assay Method Text: in vitro
- Cond: human
Measurement Type: viability (%)

Oc1c2cccc1CNCCN(CCNCCCNCCNCCCNCCN1CCNCc3cccc(c3O)CNCC1)CCNC2 [Double Macrophen] : 95
NCCNCCNCc1cc(-c2ccc(O)c(CNCCNCCN)c2)ccc1O [Bisom] : 72
NCCN(CCN)Cc1cccc(-c2cccc(CN(CCN)CCN)c2O)c1O [Bfden] : 97
NCCN(CCN)Cc1cc(-c2ccc(O)c(CN(CCN)CCN)c2)ccc1O [Dimo] : 58
